System: DMS-114
assay-procedure: NCI tumour cell line growth inhibition, 48 h
Active and inactive are the calls of the source. No stated cut-off is given here; in the data, active = GI50 up to about 1.1 µM and inactive = higher.
measurement-name: GI50

[ask] Any idea what its GI50 is? The compound is COC(=O)CCC(=O)CC(=O)C1=NS(=O)(=O)c2nc(S(N)(=O)=O)c(Cl)cc2N1
[reply] > 100 µM (inactive)

[ask] Any idea what its GI50 is? The compound is CC1CCN(c2cc(-c3cc4ccccc4o3)oc(=O)c2C#N)CC1
[reply] > 100 µM (inactive)

---

Test system: MDA-MB-231
assay-procedure: NCI tumour cell line growth inhibition, 48 h
Activity calls are given as the source filed them. Cut-off read from the data, not from the text of the source: active = GI50 up to about 1.1 µM and inactive = higher.
In this section we review reported GI50 values for a set of compounds.

[
  {
    "compound": "Cn1c2ccccc2c2c3c(c4c5ccccc5n(C)c4c21)C(=O)c1ccccc1C3=O",
    "experimental-result": "19.6 µM (inactive)"
  }
]

[ask] # query: GI50 | item N#CC(c1ccc(O)cc1)N1CCN(C(C#N)c2ccc(O)cc2)CC1 (stereo not given) | system: MDA-MB-231
[reply] 21.9 µM (inactive)

[ask] # query: GI50 | item CCN1c2nc3ccccc3nc2N(CC)c2nc3ccccc3nc21 | system: MDA-MB-231
[reply] 70.8 µM (inactive)

[ask] # query: GI50 | item CC(C)/C(Cl)=N\OC(=O)Nc1ccc(C#N)cc1 | system: MDA-MB-231
[reply] 14.6 µM (inactive)

[ask] # query: GI50 | item CC(=O)NNc1nc(C)c(C(/C=C/c2ccc([N+](=O)[O-])cc2)=N/NC(N)=S)s1 | system: MDA-MB-231
[reply] > 100 µM (inactive)

// provenance: ChEMBL document CHEMBL1201862
